// data source = patent US20150258192A1

target: ALK(h) (Homo sapiens)
Sequence (Q9UM73 19-1620): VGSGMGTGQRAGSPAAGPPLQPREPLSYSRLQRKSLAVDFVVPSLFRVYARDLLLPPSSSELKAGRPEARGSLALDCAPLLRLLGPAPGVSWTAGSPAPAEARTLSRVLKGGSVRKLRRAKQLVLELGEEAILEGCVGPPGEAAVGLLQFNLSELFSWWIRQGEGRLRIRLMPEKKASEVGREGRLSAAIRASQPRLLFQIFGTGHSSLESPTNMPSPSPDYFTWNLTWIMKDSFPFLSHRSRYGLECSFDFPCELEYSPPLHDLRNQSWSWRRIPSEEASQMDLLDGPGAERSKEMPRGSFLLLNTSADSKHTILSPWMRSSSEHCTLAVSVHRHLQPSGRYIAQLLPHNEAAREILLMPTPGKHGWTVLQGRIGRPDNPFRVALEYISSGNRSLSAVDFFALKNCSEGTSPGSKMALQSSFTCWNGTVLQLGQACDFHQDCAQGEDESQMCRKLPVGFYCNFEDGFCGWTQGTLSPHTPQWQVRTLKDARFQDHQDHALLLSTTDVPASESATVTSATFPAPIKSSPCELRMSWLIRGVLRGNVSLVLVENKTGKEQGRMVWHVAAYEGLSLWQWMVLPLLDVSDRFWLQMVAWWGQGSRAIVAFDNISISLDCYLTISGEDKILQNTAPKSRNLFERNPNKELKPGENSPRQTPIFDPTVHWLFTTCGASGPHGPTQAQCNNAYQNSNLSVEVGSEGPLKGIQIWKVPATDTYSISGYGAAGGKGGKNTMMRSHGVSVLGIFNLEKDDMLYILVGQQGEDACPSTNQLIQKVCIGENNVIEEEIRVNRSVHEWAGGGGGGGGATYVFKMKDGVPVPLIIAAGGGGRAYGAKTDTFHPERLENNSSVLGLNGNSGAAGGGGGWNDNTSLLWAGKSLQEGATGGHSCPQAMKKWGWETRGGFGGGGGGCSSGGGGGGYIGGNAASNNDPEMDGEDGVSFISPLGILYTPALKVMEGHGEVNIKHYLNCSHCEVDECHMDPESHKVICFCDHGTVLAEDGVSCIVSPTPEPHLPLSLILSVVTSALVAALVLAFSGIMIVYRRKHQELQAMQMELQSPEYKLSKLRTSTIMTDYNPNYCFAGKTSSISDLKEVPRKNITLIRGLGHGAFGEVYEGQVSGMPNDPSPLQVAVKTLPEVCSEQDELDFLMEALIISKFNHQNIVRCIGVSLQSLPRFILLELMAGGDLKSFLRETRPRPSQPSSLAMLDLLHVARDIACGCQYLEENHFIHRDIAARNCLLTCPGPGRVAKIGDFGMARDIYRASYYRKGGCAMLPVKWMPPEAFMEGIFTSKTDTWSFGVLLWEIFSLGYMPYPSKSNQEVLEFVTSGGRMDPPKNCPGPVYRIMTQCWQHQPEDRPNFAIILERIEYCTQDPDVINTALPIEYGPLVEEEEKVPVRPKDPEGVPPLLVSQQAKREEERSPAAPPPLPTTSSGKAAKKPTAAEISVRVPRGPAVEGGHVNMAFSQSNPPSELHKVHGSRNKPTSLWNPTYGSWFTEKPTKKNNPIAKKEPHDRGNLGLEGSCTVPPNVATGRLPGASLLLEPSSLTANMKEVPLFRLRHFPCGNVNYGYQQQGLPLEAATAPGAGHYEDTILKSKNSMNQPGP
experimental_details: Kinase Profiling Assay
Assay type: biochemical
details: peptide 100 μM
No end group written: not given here.

| sequence_content | unit_label | % activity |
| --- | --- | --- |
| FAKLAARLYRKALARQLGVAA [MMI-0300] | % | 19 |
| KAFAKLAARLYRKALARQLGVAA [MMI-0400] | % | 16 |
| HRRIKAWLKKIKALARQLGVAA (Mammal) [MMI-0500] | % | 12 |
| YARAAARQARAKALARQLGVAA [MMI-0100] | % | 118 |
| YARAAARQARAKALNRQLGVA (Mammal) [MMI-0200] | % | 95 |
